- assay_system: LL-diaminopimelate aminotransferase, chloroplastic (Arabidopsis thaliana) (UniProt Q93ZN9)
- Sequence (Q93ZN9 whole entry): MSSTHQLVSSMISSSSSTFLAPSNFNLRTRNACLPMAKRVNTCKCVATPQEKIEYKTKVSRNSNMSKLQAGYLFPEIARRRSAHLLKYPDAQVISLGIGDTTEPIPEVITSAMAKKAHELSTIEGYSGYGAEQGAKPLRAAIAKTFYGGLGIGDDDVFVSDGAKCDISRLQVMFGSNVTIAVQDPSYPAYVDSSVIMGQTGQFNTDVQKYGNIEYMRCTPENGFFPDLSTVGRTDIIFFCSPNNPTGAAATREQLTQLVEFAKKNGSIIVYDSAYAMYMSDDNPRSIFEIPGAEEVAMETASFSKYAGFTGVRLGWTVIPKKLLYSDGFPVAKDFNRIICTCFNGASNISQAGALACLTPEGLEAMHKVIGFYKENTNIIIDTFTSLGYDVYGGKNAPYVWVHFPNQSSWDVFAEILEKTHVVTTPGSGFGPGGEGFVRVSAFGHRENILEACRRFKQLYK
- test_protocol: Inhibition of Arabidopsis thaliana LL-DAP-AT expressed in Escherichia coli at 10 uM by aminobenzaldehyde-based assay
attribute_measured: inhibition (%)
Numeric answer only, unit % assumed.

Looking up `O=C(Cn1c(/C=C2/C(=O)NC(=O)N(c3cccc(F)c3)C2=O)cc2ccccc21)Nc1ccccc1` , I see its inhibition listed as 18

The recorded inhibition for entry `CN1C(=O)/C(=C/c2cc3ccccc3n2CC(=O)O)C(=O)N(c2ccc(Cl)cc2)C1=O` equals 14

// recorded inhibition for `CN1C(=O)C(=Cc2cccn2-c2cccc([N+](=O)[O-])c2)C(=O)N(C)C1=O` : 13

Entry under test: O=C1/C(=C/c2cn(-c3ccccc3)nc2-c2cccs2)SC(=S)N1C1CCS(=O)(=O)C1 (stereo not given) . Its inhibition was 13

Field inhibition (entry `C=CCN1C(=O)NC(=O)/C(=C/c2ccc(-c3ccc(C(=O)OCC)cc3)o2)C1=O` ) reads 16

response.value for `COc1ccccc1N1C(=O)/C(=C\c2cc3ccccc3n2Cc2ccccc2)C(=O)NC1=S` (field: inhibition) = 20

Short answer for `O=C(N/N=C/c1ccc(F)cc1)c1cc(-c2ccc3ccccc3c2)n[nH]1` : inhibition was 14

Just so you know, measured inhibition for `N=C1NC(=O)/C(=C/c2ccc(-c3ccc([N+](=O)[O-])cc3Br)o2)S1` came out at 13

Summary for this molecule, `CC(=O)NN1C(=O)/C(=C/c2ccc(Br)o2)SC1=S` : inhibition is 13

inhibition recorded for this molecule, `C/C(=N\NC(=O)c1cc(C2CC2)n[nH]1)c1ccc(C)cc1` , is 14

* * *

- assay_system: UniProt:Q93ZN9
- test_protocol: Inhibition of Arabidopsis thaliana LL-DAP-AT expressed in Escherichia coli by aminobenzaldehyde-based assay
- condition_notes: read-out: IC50
attribute_measured: log10 IC50 (log10 of the value in µM)
Reminder: these figures are log10 of reported IC50, in µM before transformation.

{"smiles_representation": "CCN1C(=O)/C(=C/c2cccc3ccccc23)SC1=S", "attribute_measured": "log10 IC50", "reported_result": 2.30}
{"smiles_representation": "CCN1C(=O)/C(=C/c2ccc(Cl)cc2)SC1=S", "attribute_measured": "log10 IC50", "reported_result": 2.30}
{"smiles_representation": "COc1ccc(OC)c(Nc2nc3ccccc3nc2NS(=O)(=O)c2cccc([N+](=O)[O-])c2)c1", "attribute_measured": "log10 IC50", "reported_result": 2.18}
{"smiles_representation": "Cc1ccc(N2C(=O)/C(=C\\c3cc4ccccc4n3CC(=O)O)C(=O)N(C)C2=O)cc1", "attribute_measured": "log10 IC50", "reported_result": 1.57}
{"smiles_representation": "Cc1c(C(=O)NC(=S)Nc2ccc3oc(-c4ccccc4Cl)nc3c2)oc2ccccc12", "attribute_measured": "log10 IC50", "reported_result": 1.92}

Per the records, this compound ( `NNC(=O)c1cc2ccccc2cc1NS(=O)(=O)c1ccccc1` ) has log10 IC50 equal to 0.70

* * *

- assay_system: UniProtKB Q93ZN9
- test_protocol: Inhibition of Arabidopsis thaliana LL-DAP-AT expressed in Escherichia coli by aminobenzaldehyde-based assay
- condition_notes: read-out: IC50
attribute_measured: pIC50
Note: pIC50 values are expressed as the negative base-10 logarithm of concentration in M.

# count of solved cases: 2
{"compound": "COc1ccc(/C=C2\\SC(=S)NC2=O)cc1I", "pIC50": 3.74}
{"compound": "COc1ccc(N2C(=O)NC(=O)/C(=C/c3ccc(-c4cccc(Cl)c4)o3)C2=O)cc1", "pIC50": 4.38}

Then there is this compound:
Entry O=C1/C(=C/c2cn(-c3ccccc3)nc2-c2cccs2)SC(=S)N1C1CCS(=O)(=O)C1 (stereo not given) under UniProtKB Q93ZN9 had pIC50 of 3.93
